B1: RSPH3 (parent)
chain: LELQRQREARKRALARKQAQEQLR

- Variants of: B1
- test-protocol: protein stability index of a GFP-peptide fusion (GPS, HEK-293T) (PSI 1-6); higher = more stable;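 note: lentivirally expressed fusions sorted by FACS into six bins by GFP to DsRed ratio, PSI derived from sequencing read proportions per bin multiplied by bin number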
- measurement-setup: c terminus: a fixed tail appended
Some variants, each annotated with its measured protein stability index.

{"columns": ["changes", "protein stability index"],
 "data": [
  ["E8R", 4.26],
  ["A13S", 3.77],
  ["E21N", 3.87],
  ["E2L", 2.6],
  ["R5I", 3.77],
  ["A15E", 4.31],
  ["Q4A", 3.17],
  ["E2H", 3],
  ["R24W", 2.98],
  ["L14C", 3.74],
  ["E2D", 3.91],
  ["E2Q", 3.93],
  ["R7F", 4.1],
  ["Q20V", 3.78],
  ["Q6M", 2.92],
  ["Q20I", 3.47],
  ["R12W", 3.21],
  ["L1R", 4.4],
  ["E8Y", 3.46],
  ["A13E", 4.5],
  ["A9I", 3.39],
  ["L23D", 4.42],
  ["K11T", 3.46],
  ["Q4K", 3.55],
  ["K11S", 4.11],
  ["A15N", 4.32],
  ["R7K", 3.56],
  ["A13G", 3.33],
  ["K11N", 3.8],
  ["K17L", 3.97],
  ["Q6W", 4.26],
  ["Q18Y", 2.81],
  ["R24Y", 3.16],
  ["Q6P", 3.64],
  ["A13K", 3.36],
  ["R12P", 4.25],
  ["R16D", 3.99],
  ["R16K", 3.93],
  ["R10F", 3.52],
  ["E8N", 3.44],
  ["K17P", 4.48],
  ["A15V", 3.69],
  ["L23S", 3.78],
  ["A19C", 4.22],
  ["R16N", 4.6],
  ["L3S", 4.14],
  ["R5F", 3.91],
  ["A15C", 3.42],
  ["K11A", 3.84],
  ["R24K", 3.72],
  ["R12Q", 4.33],
  ["Q22L", 3.63],
  ["Q22M", 2.92],
  ["E8I", 2.38],
  ["L14H", 4.32],
  ["R24P", 3.86],
  ["R12V", 3.81],
  ["L3H", 4.42],
  ["A19Y", 2.92],
  ["Q4H", 4.2],
  ["L23Y", 3.9],
  ["Q20H", 3.77],
  ["E2V", 2.79],
  ["R12D", 4.15],
  ["A19W", 3.15],
  ["R24T", 3.82],
  ["A13L", 3.35],
  ["E8D", 3.81],
  ["R7E", 4.31],
  ["E8L", 2.98],
  ["R16Y", 3.4],
  ["E2A", 3.1],
  ["K11V", 2.74],
  ["L23N", 3.92],
  ["E2T", 3.15],
  ["R5H", 4.21],
  ["R10T", 3.92],
  ["A9P", 4],
  ["Q6N", 3.73],
  ["E21H", 3.23],
  ["Q18S", 3.38],
  ["E8F", 3.24],
  ["K11G", 4.44]
]}
